The measured values listed here are drawn from PubChem BioAssay.

experiment: budding yeast growth modifiers under rapamycin – strain BY4716, OD600, 96 h, primary screen (AID 1091); further: test concentration not given here; conditions: S. cerevisiae BY4716 + rapamycin, higher = more signal, called active from +8 up or from −8 down
Param threshold (-0.3) applies to z-score; output rule met when value >= threshold, rule not met when value < threshold.

# molecule, class
rows = [
    ("CCN(CC)c1ccc(N2CC=CC34O[C@@H]5C=CCOC(=O)[C@@H]5[C@H]3C(=O)N(CCCCCCO)[C@@H]4C2=O)cc1 (some centres not stated)", "rule not met"),
]

Please look at the following molecule next.
For this molecule, is measured z-score -0.3 or higher? COc1ccc(C#Cc2ccc3c(c2)[C@]2(C(=O)N3)[C@H](c3ccc(O)cc3)N3[C@H](c4ccccc4)[C@H](c4ccccc4)OC(=O)[C@H]3[C@@H]2C(=O)N2CCc3cc(OC)c(OC)cc3C2)cc1
rule met
